Exercise: for every item that follows, state its recorded TGI.
Test system: OVCAR-5 ovarian
assay method text: NCI tumour cell line growth inhibition, 48 h

{"columns": ["compound", "readout name", "endpoint value"],
 "data": [
  ["O=C(NCc1ccccc1)c1c(O)c2ccccc2[nH]c1=O", "TGI", "> 100 µM"],
  ["C=C1C(=O)O[C@H]2[C@H]1CC/C(COC(=O)/C=C/c1c[nH]c3ccccc13)=C\\CC[C@@]1(C)O[C@@H]21", "TGI", "1.38 µM"],
  ["CCCCN(CCCC)C(=O)C(=O)CC(=O)/C=C/c1ccccc1", "TGI", "> 100 µM"],
  ["C=CCn1c(=O)c2ccccc2[n+]2c(-c3cccc([N+](=O)[O-])c3)csc12", "TGI", "> 100 µM"],
  ["CC(=O)Nc1ccc(/C=C(\\NC(=O)c2ccccc2)C(=O)NNS(=O)(=O)c2ccc(C)cc2)cc1", "TGI", "> 100 µM"],
  ["CN(C)C=Nc1nncc2n[nH]nc12", "TGI", "> 100 µM"],
  ["N#Cc1c(-c2ccc(Cl)cc2)cc(-c2nc3ccccc3[nH]2)nc1N", "TGI", "43.4 µM"],
  ["Cc1cc(C)c2c(c1)CC1(Cc3c(C)cc(C)cc3C1=O)C2=O (stereo unspecified)", "TGI", "> 100 µM"]
]}

For every record below, what is its TGI?
1. O=c1oc2cc(OS(=O)(=O)c3ccccc3)ccc2c2c1CCCCC2
2. Cn1c(O)c(N=NC(N)=S)c2ccccc21
3. COc1cc(CC2CC(c3ccc4c(c3)OCO4)OC2=O)cc(OC)c1OC (stereo unspecified)
4. COc1cccc2c1[C@]1(O)C(O)CCCC21 (stereo partly specified)
5. Cc1cc(S(=O)(=O)Nc2nc3cc(-c4ccsc4)sc3c(=O)n2N)c(S)cc1Cl
6. CC1=NN(C(=O)c2cc(Cl)cc([N+](=O)[O-])c2)C(=O)C1N=Nc1ccccc1C(=O)O (stereo unspecified)
7. CN(C)c1ccc(N=C(C#N)c2nc(N)nc(N3CCN(c4ccccc4)CC3)n2)cc1

OUTPUT:
1: > 100 µM; 2: > 100 µM; 3: > 100 µM; 4: > 100 µM; 5: > 100 µM; 6: > 100 µM; 7: > 50 µM

Provide TGI values for the following items, in order.
1. CC1(C)O[C@@H](CP(c2cccc3ccccc23)c2cccc3ccccc23)[C@H](CP(c2cccc3ccccc23)c2cccc3ccccc23)O1
2. Cc1nn(-c2ccccn2)c2c1C(SC#N)=C(C=O)CC2
3. COc1cc(N=Nc2cccc(S(N)(=O)=O)c2)c2ccccc2c1N
4. N#Cc1c(NCc2ccccc2)nc(NCc2ccccc2)c(C#N)c1-c1cccc(O)c1
5. O=C(Nc1nc(C23CC4CC(CC(C4)C2)C3)cs1)c1cc2cc([N+](=O)[O-])ccc2oc1=O
6. COC(=O)C1=C(C)NC2(C)OC(C)(O)C(C(C)=O)C12C(C)=O (stereo unspecified)

OUTPUT:
1. > 100 µM
2. 20.7 µM
3. 33.3 µM
4. 48 µM
5. > 100 µM
6. > 100 µM

----------
Exercise: state measured TGI for each of the compounds provided.
Tested on: NCI-H460 lung
assay method text: NCI tumour cell line growth inhibition, 48 h

# per-item lookup of TGI; items listed below
1. CC(C)CC(NC(=O)C(COc1ccc([N+](=O)[O-])cc1)Cc1ccccc1)C(=O)Nc1ccccc1 (configuration not stated)
2. O=C(Nc1ccccc1C(=O)O)C(=O)C(C(=O)c1ccccc1-c1ccccc1)C1OC(=O)c2ccccc21 (configuration not stated)
3. C=C1C(=O)O[C@H]2C3C(=C(C)CC[C@@H]12)C(=O)[C@@H]1OC31C (some centres not stated)
4. CC(=O)OCC(OC(C)=O)C(OC(C)=O)C(OC(C)=O)C(=O)CNn1c(-c2ccccc2Cl)nc2ccc(Br)cc2c1=O (configuration not stated)

OUTPUT:
1. 13.2 µM
2. 32.7 µM
3. 25.3 µM
4. > 100 µM

Give TGI for each listed item.
1. CNC(C)Cc1ccc(O)cc1 (configuration not stated)
2. Cn1c(=O)c2[nH]c(CCC(=O)O)nc2n(C)c1=O
3. COc1cc(/C=C\c2cc(OC)c(OC)c(OC)c2)cc(NS(=O)(=O)c2cccc(Cl)c2)c1OC
4. COc1ccc(N2C(=O)C(N3C(=O)C=CC3=O)C2C=O)cc1 (configuration not stated)
5. C/C(=C\c1ccccc1)C(=O)NCc1ccc(C(=O)NCCc2c[nH]c3ccccc23)cc1
6. C[C@]12CC[C@H]3[C@@H](CCC4=C[C@@H](OC5OCC(OC6OC(CO)C(O)C(O)C6O)C(O)C5O)CC[C@@]43C=O)[C@@]1(O)CCC2C1=CC(=O)OC1 (some centres not stated)
7. CCOC(=O)N1C(=S)C(C(=O)OC)(C(=O)OC)N=C1C
8. CCCC(=O)OC1CC(n2cc(F)c(=O)[nH]c2=O)OC1CO (configuration not stated)

OUTPUT:
["> 100 µM", "> 100 µM", "> 100 µM", "> 100 µM", "> 100 µM", "0.534 µM", "> 100 µM", "> 10 µM"]

Look at each compound and report its TGI.
1. Cc1nn(-c2ccccn2)c2c1C(SC#N)=C(C=O)CC2
2. CCOC(=O)NC(=O)c1cn(C2OC(CO)C(O)C2O)c(=O)[nH]c1=O (configuration not stated)
3. COc1cc(-c2[o+]c3cc(O)cc(OC4OC(CO)C(O)C(O)C4O)c3cc2OC2OC(CO)C(O)C(O)C2O)cc(OC)c1O (configuration not stated)
4. COc1ccc(/C=C/c2cnc3ccccc3n2)cc1OC
5. COc1cc(N=Nc2cccc(S(N)(=O)=O)c2)c2ccccc2c1N

OUTPUT:
["34.9 µM", "> 100 µM", "> 100 µM", "> 100 µM", "25.7 µM"]
